This listing pairs compounds with measured MIC Pseudomonas aeruginosa GN 1091.
Tested on: Pseudomonas aeruginosa
Assay: MIC against clinical isolates
Assay type: cell-based
Conditions: Table 6-3, clinical isolate; unit assumed

# compound, valueOperator, MIC Pseudomonas aeruginosa GN 1091, µg/mL
data = [
    ("CCCCN1CCN(C(=O)NC(C(=O)NC2C(=O)N3C(C(=O)O)=C(CSc4nnnn4C)CSC23)c2ccccc2)C(=O)C1=O (single isomer, unassigned) [Compound No. 73]", "=", 12.5),
    ("CCCCCCCCN1CCN(C(=O)N[C@@H](C(=O)NC2C(=O)N3C(C(=O)O)=C(CSc4nnnn4C)CSC23)c2ccccc2)C(=O)C1=O (single isomer, unassigned) [Compound No. 74]", "=", 25),
    ("CCN1CCN(C(=O)NC(C(=O)NC2C(=O)N3C(C(=O)O)=C(CSc4nnnn4C)CSC23)c2ccc(O)cc2)C(=O)C1=O (stereo not drawn) [Compound No. 72]", "=", 6.25),
    ("CCN1CCN(C(=O)NC(C(=O)NC2C(=O)N3C(C(=O)O)=C(CSc4nnnn4CC)CSC23)c2ccccc2)C(=O)C1=O (single isomer, unassigned) [Compound No. 77]", "=", 25),
    ("Cn1nnnc1SCC1=C(C(=O)O)N2C(=O)C(NC(=O)C(NC(=O)N3CCN(CCO)C(=O)C3=O)c3ccccc3)C2SC1 (single isomer, unassigned) [Compound No. 82]", "=", 50),
    ("CCN1CCN(C(=O)NC(C(=O)NC2C(=O)N3C(C(=O)O)=C(CSc4nnnn4CC)CSC23)c2ccc(O)cc2)C(=O)C1=O (single isomer, unassigned) [Compound No. 78]", "=", 25),
    ("CCN1CCN(C(=O)NC(C(=O)NC2C(=O)N3C(C(=O)O)=C(CSc4nncs4)CSC23)c2ccc(O)cc2)C(=O)C1=O (single isomer, unassigned) [Compound No. 79]", "=", 12.5),
    ("O=C(Cc1cccs1)N[C@@H]1C(=O)N2C(C(=O)[O-])=C(C[n+]3ccccc3)CS[C@H]12 [Cephalorizine, reference compound]", ">", 200),
    ("CC(=O)OCC1=C(C(=O)O)N2C(=O)[C@@H](NC(=O)Cc3cccs3)[C@H]2SC1 [Sodium Cephalothin, reference compound]", ">", 200),
]

---

Readings of MIC Pseudomonas aeruginosa S-1 for the listed compounds
System: Pseudomonas aeruginosa
Experiment: MIC against clinical isolates
Format: cell-based
Conditions: Table 6-4, clinical isolate; unit assumed
observedProperty: MIC Pseudomonas aeruginosa S-1 (µg/mL)

# compound, testedSystem, outputUnit, valueOperator, experimentalValue
rows = [
    ("CC(=O)OCC1=C(C(=O)O)N2C(=O)[C@@H](NC(=O)Cc3cccs3)[C@H]2SC1 [Sodium Cephalothin, reference compound]", "Pseudomonas aeruginosa", "µg/mL", ">", 200),
    ("CCN1CCN(C(=O)NC(C(=O)NC2C(=O)N3C(C(=O)O)=C(CSc4nncs4)CSC23)c2ccc(O)cc2)C(=O)C1=O (single isomer, unassigned)", "Pseudomonas aeruginosa", "µg/mL", "=", 25),
    ("CCN1CCN(C(=O)NC(C(=O)NC2C(=O)N3C(C(=O)O)=C(CSc4nnnn4CC)CSC23)c2ccccc2)C(=O)C1=O (single isomer, unassigned)", "Pseudomonas aeruginosa", "µg/mL", "=", 50),
]
